# reported LC50; entries follow
assay: Toxicity in Artemia salina; format: organism-based; conditions: in vivo, read-out: LD50 (the source's name)
Expressed in µg/mL, but write only the number.

Answered examples (3):
[[record]]
chemical_structure = "CCC/C=C/CCCc1ccc(O)cc1"
measurement_name = "LC50"
experimental_result = 5.5

[[record]]
chemical_structure = "CCCC/C=C/CCc1ccc(O)cc1"
measurement_name = "LC50"
experimental_result = 5

[[record]]
chemical_structure = "CCCCCC/C=C/CCc1ccc(O)cc1"
measurement_name = "LC50"
experimental_result = 4.9


Documented LC50 of `CCCCC/C=C/CCCc1ccc(O)cc1` : 5.3
